# System: ACHN renal
# procedure summary: NCI tumour cell line growth inhibition, 48 h

- molecule: "COC1[C@@H](OC(C)=O)[C@@H](NC(=O)C(Cl)(Cl)Cl)C(I)[C@@H](N2C(=O)c3ccccc3C2=O)[C@H]1OC (some centres undefined)"
  TGI: "> 100 µM"
- molecule: "O=C(CC(O)(C(F)(F)F)C(F)(F)F)c1cc(CC(=O)C(O)(C(F)(F)F)C(F)(F)F)cc(CC(=O)C(O)(C(F)(F)F)C(F)(F)F)c1"
  TGI: "> 6.02 µM"
- molecule: "CSc1nncc2[nH]c(C)nc12"
  TGI: "> 100 µM"
- molecule: "CCCCCCC[CH2][Sn]1([CH2]CCCCCCC)[O]C(=O)c2cccnc2[S]1"
  TGI: "> 100 µM"

====

# Test system: LXFL 529 NSCLC
# procedure summary: NCI tumour cell line growth inhibition, 48 h

- molecule: "O=C1CC(C[C@H](O)C2CCCCC2O)CC(=O)N1Cc1ccccc1 (some centres not stated)"
  TGI: "> 100 µM"
- molecule: "O=C(NC(=O)c1cn(CCNCCO)c(=O)[nH]c1=O)OCc1ccccc1"
  TGI: "> 100 µM"
- molecule: "CCOC(=O)C(C)(C)Oc1ccc2c(C)c(-c3ccc(Cl)cc3)c(=O)oc2c1"
  TGI: "> 100 µM"
- molecule: "O=C1[C@@H]2C3c4ccccc4C([C@@H]2C(=O)N1c1ccccc1)S3(=O)=O"
  TGI: "> 100 µM"
- molecule: "COc1ccc(NC(=O)/C(N=O)=C(/C)O)cc1"
  TGI: "> 100 µM"
- molecule: "COc1cccc(/C=N/[N-]C(=O)c2ccncc2)c1[O-].[Cu+2].[OH3+]"
  TGI: "> 100 µM"
- molecule: "CCc1c(OC(C)=O)c2c(NC3OC(COC(C)=O)C(OC(C)=O)C(OC(C)=O)C3OC(C)=O)nc(OC)nc2oc1=O (configuration not stated)"
  TGI: "> 100 µM"
- molecule: "O=C(c1ccc(Cl)cc1)c1cnc(Nc2ccccc2Cl)s1"
  TGI: "32.8 µM"
- molecule: "CCC1C2C=CC(CC2)N1S(=O)(=O)c1ccc(C)cc1 (configuration not stated)"
  TGI: "55.5 µM"
- molecule: "Cc1ccc(S(=O)(=O)N/N=C/c2oc(-c3ccncc3)c(-c3ccncc3)c2[N+](=O)[O-])cc1"
  TGI: "> 100 µM"
- molecule: "O=c1n(-c2ccccc2)c(=O)n2n1C1C=CC2C2C(C1)C2(Cl)Cl (configuration not stated)"
  TGI: "> 100 µM"
- molecule: "O=C(O)[C@H](NS(=O)(=O)c1ccc2ccccc2c1)c1ccccc1"
  TGI: "> 100 µM"

====

# System: NCI-H23 lung
# procedure summary: NCI tumour cell line growth inhibition, 48 h
measure name: TGI

- compound: "CCOC(=O)c1ccc(NC(=O)O/N=C(/Cl)CCl)cc1"
  subject of test: "NCI-H23 lung"
  experimental value: "> 100 µM"
- compound: "CC(C)(C)NC(=O)N1N=C(c2ccccc2)C1c1ccccc1 (configuration not stated)"
  subject of test: "NCI-H23 lung"
  experimental value: "> 100 µM"
- compound: "COc1ccc2[nH]cc(-c3nc(-c4c[nH]c5ncccc45)cs3)c2c1"
  subject of test: "NCI-H23 lung"
  experimental value: "> 100 µM"
- compound: "CC12CC(C#N)(C#N)C(C#N)(CO1)C(=N)O2 (configuration not stated)"
  subject of test: "NCI-H23 lung"
  experimental value: "> 100 µM"
- compound: "COC1[C@@H](OC(C)=O)[C@@H](NC(=O)C(Cl)(Cl)Cl)C(I)[C@@H](N2C(=O)c3ccccc3C2=O)[C@H]1OC (some centres not stated)"
  subject of test: "NCI-H23 lung"
  experimental value: "> 100 µM"
- compound: "Cc1ccc(NC(=O)C2C(=O)N(c3ccc(C)c(C)c3)C(=O)C2N=N)cc1C (configuration not stated)"
  subject of test: "NCI-H23 lung"
  experimental value: "> 100 µM"
- compound: "O=C1CC(C[C@H](O)C2CCCCC2O)CC(=O)N1Cc1ccccc1 (some centres not stated)"
  subject of test: "NCI-H23 lung"
  experimental value: "> 100 µM"
- compound: "CCCCn1c(C)c2c(c1C)C(=O)N(CC(O)CN1CCc3ccccc3C1)C2=O (configuration not stated)"
  subject of test: "NCI-H23 lung"
  experimental value: "> 100 µM"
- compound: "CC(C)(C)C(=O)OC(N)/C=C/c1ccccc1 (configuration not stated)"
  subject of test: "NCI-H23 lung"
  experimental value: "> 100 µM"
- compound: "Ic1ccc(-n2nnnc2-c2cnoc2-c2ccccc2)cc1"
  subject of test: "NCI-H23 lung"
  experimental value: "> 81 µM"
- compound: "COC12C=C/C(=C(/C(=O)OCc3ccncc3)C(=O)CCCCCCCCC3(OC)C=C/C(=C(/C(=O)OCc4ccncc4)C(=O)CCCCCCCC1)O3)O2"
  subject of test: "NCI-H23 lung"
  experimental value: "0.762 µM"
- compound: "Cc1[nH]c2ccccc2c1-c1cc(-c2cc(-c3c(C)[nH]c4ccccc34)on2)no1"
  subject of test: "NCI-H23 lung"
  experimental value: "> 100 µM"
- compound: "CSc1nncc2[nH]c(C)nc12"
  subject of test: "NCI-H23 lung"
  experimental value: "> 100 µM"
- compound: "COC(=O)C1(OC(=O)Sc2ccccc2)CCN(C)CC1"
  subject of test: "NCI-H23 lung"
  experimental value: "50.2 µM"
- compound: "COc1ccc(OC)c(N2C(=O)CSC2c2cc(OC)c(OC)c(OC)c2)c1 (configuration not stated)"
  subject of test: "NCI-H23 lung"
  experimental value: "> 100 µM"
- compound: "O=C(c1cc(Cl)cc(Cl)c1)N1CCN(C(=O)c2cc(Cl)cc(Cl)c2)C1=S"
  subject of test: "NCI-H23 lung"
  experimental value: "34.6 µM"
- compound: "CC(C)=C1C(=O)C[C@]2(C)C[C@H]3/C(=C(/C)CCC12)CC[C@@]3(C)O (some centres not stated)"
  subject of test: "NCI-H23 lung"
  experimental value: "> 50 µM"
- compound: "O=C(CC(=O)c1ccccc1)CC(O)(c1ccccc1)c1ccccc1"
  subject of test: "NCI-H23 lung"
  experimental value: "18.8 µM"
- compound: "O=C(NCCCCN=c1cccccc1NCCCCNC(=O)OCc1ccccc1)OCc1ccccc1"
  subject of test: "NCI-H23 lung"
  experimental value: "48.8 µM"
- compound: "CC(C)=CCc1cc(O)cc2c1OC(C=C(C)C)C1=C2C(=O)C2=C(NCCS2(=O)=O)C1=O (configuration not stated)"
  subject of test: "NCI-H23 lung"
  experimental value: "6.53 µM"
- compound: "COc1cc(CNCCCN2C(=O)c3ccc4c5c(ccc(c35)C2=O)C(=O)N(CCCNCc2cc(OC)c(OC)c(OC)c2)C4=O)cc(OC)c1OC"
  subject of test: "NCI-H23 lung"
  experimental value: "1.22 µM"
- compound: "O=c1c2c(-c3ccccc3)onc2n(-c2ccccc2)c(=O)n1-c1ccccc1"
  subject of test: "NCI-H23 lung"
  experimental value: "47.8 µM"
- compound: "CCN1CCN=c2c3cc(OC)ccc3n3cnc4ccc1c2c43"
  subject of test: "NCI-H23 lung"
  experimental value: "0.985 µM"
- compound: "N#Cc1c(-c2ccc(F)cc2)c(-c2ccc(F)cc2)nn(CCO)c1=O"
  subject of test: "NCI-H23 lung"
  experimental value: "> 78.3 µM"
- compound: "COc1ccc(NC(=O)/C(N=O)=C(/C)O)cc1"
  subject of test: "NCI-H23 lung"
  experimental value: "> 100 µM"
- compound: "COc1ccc(C(O)c2nccn2C)c(OC)c1 (configuration not stated)"
  subject of test: "NCI-H23 lung"
  experimental value: "> 100 µM"
- compound: "COc1cc(C2SCC(=O)N2c2ccc(Cl)c(Cl)c2)cc(OC)c1OC (configuration not stated)"
  subject of test: "NCI-H23 lung"
  experimental value: "> 100 µM"
- compound: "NC12Oc3cc(O)cc(O)c3C1(c1ccc(Cl)cc1)c1c(O)cc(O)cc1O2 (configuration not stated)"
  subject of test: "NCI-H23 lung"
  experimental value: "> 100 µM"
- compound: "COc1ccc(-c2cc(-c3ccccc3)c(C#N)c(=O)n2C2OC(CO)C(O)C(O)C2O)cc1 (configuration not stated)"
  subject of test: "NCI-H23 lung"
  experimental value: "> 100 µM"
- compound: "C=CC(=O)N1CCC(C2CCNc3c(C(N)=O)c(-c4ccc(Oc5ccccc5)cc4)nn32)CC1 (configuration not stated)"
  subject of test: "NCI-H23 lung"
  experimental value: "39.9 µM"
- compound: "CC(=O)Nc1ccc(-c2nc3ccccc3s2)cc1"
  subject of test: "NCI-H23 lung"
  experimental value: "> 100 µM"
- compound: "CC1(C)OC(=C(C#N)C#N)C(C#N)=C1/C=C/c1ccncc1"
  subject of test: "NCI-H23 lung"
  experimental value: "5.56 µM"
- compound: "N#C/C=C(\\c1ccc([N+](=O)[O-])cc1)n1nnc2cc(Cl)c(Cl)cc21"
  subject of test: "NCI-H23 lung"
  experimental value: "6.68 µM"
- compound: "CCc1c(OC(C)=O)c2c(NC3OC(COC(C)=O)C(OC(C)=O)C(OC(C)=O)C3OC(C)=O)nc(OC)nc2oc1=O (configuration not stated)"
  subject of test: "NCI-H23 lung"
  experimental value: "> 100 µM"
- compound: "CC1=C2CCCC2=C/C(=N/Nc2ccc([N+](=O)[O-])cc2[N+](=O)[O-])CC1"
  subject of test: "NCI-H23 lung"
  experimental value: "> 100 µM"
- compound: "O=C1NN=C2C=C(c3ccc(Cl)cc3)CC(c3cccc(Cl)c3)C12 (configuration not stated)"
  subject of test: "NCI-H23 lung"
  experimental value: "> 100 µM"
- compound: "COC(=O)CN(C)P(=O)(N1CC1)N1CC1"
  subject of test: "NCI-H23 lung"
  experimental value: "> 100 µM"
- compound: "O=c1cc(-c2ccccc2)[nH]c2c(S)cccc12"
  subject of test: "NCI-H23 lung"
  experimental value: "> 100 µM"
- compound: "CN1C(=O)C(CC=O)(C(C)(C)C)c2ccccc21 (configuration not stated)"
  subject of test: "NCI-H23 lung"
  experimental value: "> 100 µM"
- compound: "CCN(CC)c1nc(-c2ccc(Cl)cc2Cl)nc2ccccc12"
  subject of test: "NCI-H23 lung"
  experimental value: "62.8 µM"
- compound: "CC(CC(=O)O)C(C(=O)O)C(=O)O (configuration not stated)"
  subject of test: "NCI-H23 lung"
  experimental value: "> 100 µM"
- compound: "Cn1c(N)c2c3c(sc2nc1=O)CCCC3"
  subject of test: "NCI-H23 lung"
  experimental value: "> 75 µM"
